Source: patent US10858316B2

molecular target: Mcl-1 (Homo sapiens (Human), UniProt Q07820); test: Fluorescence polarization competition assay (FPCA), Mcl-1 / FITC-Bak BH3 peptide; format: binding; settings: FPCA with FITC-Bak; Ki from IC50 by Nikolovska-Coleska equation; read-out: Mcl-1 Ki
Sequence (Q07820 172-327): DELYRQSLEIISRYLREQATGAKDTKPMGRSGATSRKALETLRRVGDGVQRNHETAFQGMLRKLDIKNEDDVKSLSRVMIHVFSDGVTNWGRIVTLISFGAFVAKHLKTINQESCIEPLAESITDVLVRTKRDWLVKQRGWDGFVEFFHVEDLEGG
pKi: −log10 of the molar value.
Everything with pKi lower than 5 is criterion not met; everything else, including exactly 5, is criterion met.

[
  {
    "compound": "CC(=O)OCOC(=O)c1ccc(N(CC(C)C)S(=O)(=O)c2ccc(Oc3ccccc3)cc2)cc1O",
    "label": "criterion not met"
  },
  {
    "compound": "O=C(O)c1cc(S(=O)(=O)Nc2ccc(-c3ccccc3)cc2)c2ccccc2c1O",
    "label": "criterion met"
  },
  {
    "compound": "O=C(O)c1cc(S(=O)(=O)Nc2ccc(Oc3ccc(Cl)cc3Cl)cc2)c2ccccc2c1O",
    "label": "criterion met"
  },
  {
    "compound": "CC(C)CN(c1ccc(-c2cc(=O)[nH]o2)cc1)S(=O)(=O)c1ccc(Oc2ccccc2)cc1",
    "label": "criterion not met"
  },
  {
    "compound": "O=C(O)c1cc(S(=O)(=O)N2CCN(Cc3ccccc3)CC2)c2ccccc2c1O",
    "label": "criterion met"
  },
  {
    "compound": "CC(C)CN(c1ccc(C(=O)O)cc1)S(=O)(=O)c1ccc(F)cc1",
    "label": "criterion not met"
  },
  {
    "compound": "O=C(O)c1cc(S(=O)(=O)N2CCN(c3ccccc3)CC2)c2ccccc2c1O",
    "label": "criterion met"
  },
  {
    "compound": "CC(C)CN(c1ccc(C(=O)O)c(O)c1)S(=O)(=O)c1ccc(F)cc1 [LC-5-025 13ad]",
    "label": "criterion not met"
  },
  {
    "compound": "Cc1ccc(S(=O)(=O)N(CC(C)C)c2cccc(C(=O)O)c2)cc1 [4jc177-2 18ae]",
    "label": "criterion not met"
  },
  {
    "compound": "O=C(O)c1ccc2c(c1)CCCN2S(=O)(=O)c1ccc(Br)cc1",
    "label": "criterion not met"
  },
  {
    "compound": "CC(C)CN(c1ccc(Br)cc1)S(=O)(=O)c1cc(C(=O)O)c(O)c2ccccc12",
    "label": "criterion met"
  },
  {
    "compound": "O=C(NS(=O)(=O)c1ccc(NCC2CCOCC2)c([N+](=O)[O-])c1)c1ccc(N(Cc2ccccc2)S(=O)(=O)c2ccc(Oc3ccccc3)cc2)cc1O",
    "label": "criterion met"
  },
  {
    "compound": "O=C(O)c1ccc(N(C2CCCC2)S(=O)(=O)c2ccc(-c3ccccc3)cc2)cc1O [LC-4-082 13bb]",
    "label": "criterion met"
  },
  {
    "compound": "CC(C)CN(c1ccc(C(=O)O)cc1)S(=O)(=O)c1ccc2ccccc2c1",
    "label": "criterion not met"
  },
  {
    "compound": "Cc1cc(CCCN(Cc2ccccc2)c2ccc(C(=O)O)c(O)c2)cc(C)c1Cl",
    "label": "criterion met"
  }
]
